Test system: RPMI-8226
EXPERIMENTAL_PROTOCOL: NCI tumour cell line growth inhibition, 48 h
The source made the active and inactive calls. No stated cut-off is given here; in the data, active = GI50 up to about 1.1 µM and inactive = higher.
MEASURED_QUANTITY: GI50

- COMPOUND: "CCC1CN2CCc3cc(OC)c(OC)cc3C2CC1CC1c2cc(OC)c(OC)cc2CCN1C(=O)C1CCCN1C(=O)OCc1ccccc1 (centres undefined)"
  RESULT: "15 µM (inactive)"
- COMPOUND: "O=C1C2CCCC2N1Cc1ccccc1 (centres undefined)"
  RESULT: "> 100 µM (inactive)"
- COMPOUND: "N#CC(C(=O)/C(=N\\NC(N)=O)C(C#N)c1ccc(Cl)cc1)c1ccc(Cl)cc1 (centres undefined)"
  RESULT: "> 100 µM (inactive)"
- COMPOUND: "C1CCNCC1.S=C(S)N1CCCCC1"
  RESULT: "3.75 µM (inactive)"
- COMPOUND: "COc1ccc2c(c1C)C(=O)C(O)(CC=C(C)C)O2 (centres undefined)"
  RESULT: "> 100 µM (inactive)"
- COMPOUND: "Cc1cn(C2CC(OC3CCCCO3)C(CO)O2)c(=O)[nH]c1=O (centres undefined)"
  RESULT: "> 100 µM (inactive)"
- COMPOUND: "O=C(/C(=N\\Nc1ccc([N+](=O)[O-])cc1[N+](=O)[O-])NC12CC3CC(CC(C3)C1)C2)C(Br)C(=O)c1ccccc1 (centres undefined)"
  RESULT: "1.84 µM (inactive)"
- COMPOUND: "CC(C)C(/C=C/c1ccc(Br)cc1)=N\\NC(N)=O"
  RESULT: "> 100 µM (inactive)"
- COMPOUND: "Cc1ccc(-n2c(Cn3nnc(-c4cccnc4)n3)nn(C3OC(COC(=O)c4ccccc4)C(OC(=O)c4ccccc4)C3OC(=O)c3ccccc3)c2=S)cc1 (centres undefined)"
  RESULT: "> 100 µM (inactive)"
